Listed here are molecules together with their documented solvation free energy, 298 K.
# measurement-notes: solvent given as SMILES
# condition-set: in CC(C)(C)O
measure: solvation free energy, 298 K (kcal/mol)

1. c1ccc2ccccc2c1    -6.85
2. O=[N+]([O-])c1cccc2ccccc12    -9.71
3. c1ccc2cc3ccccc3cc2c1    -9.71
4. NC(=O)c1ccccc1O    -12.1
5. CCC(C)O (stereo not given)    -5.67
6. O=C(O)c1cc([N+](=O)[O-])ccc1Cl    -13.1
7. c1cc2ccc3cccc4ccc(c1)c2c34    -11.2
8. CCCCCCCCCCCCCCCCCCCCCCC    -14.2
9. CCC(C)(C)OC    -4.22
10. c1ccncc1    -5.4
11. O=S(=O)(c1ccccc1)c1ccccc1    -13.2
12. O=C(O)c1ccc(Cl)c([N+](=O)[O-])c1    -13.3
13. CCCCCC    -3.33
14. FC(F)(F)F    0.8
15. CC(F)F    -1.42
16. C[N+](=O)[O-]    -3.79
17. CCI    -3.48
18. Brc1ccc(Br)cc1    -6.86
19. C=CC    -1.35
20. CC=C(C)C    -3.22
21. CCCCCCCC    -4.62
22. CCO    -5.05
23. Cc1cc(C)c(C)cc1C    -6.62
24. O=C(O)c1cccc([N+](=O)[O-])c1    -12.4
25. CCCCCCCCCCCCCCCCCCCC    -12.4
26. CCCCCCC    -3.96
27. CCCCCCCCCCCCCCCCCCCCCC    -13.3
28. C=C(C)C    -2.03
29. CCc1ccccc1    -4.99
30. c1ccc(-c2ccccc2)cc1    -8.06

###

# measurement-notes: solvent given as SMILES
# condition-set: in CCCCC
Note: every record was labeled by where its solvation free energy, 298 K sits among low: < -5 kcal/mol; moderate: ≥ -5 kcal/mol and < -3 kcal/mol; high: ≥ -3 kcal/mol

1. CCCCCCCC    low
2. CCCCCCCCC    low
3. CCCCCCC    moderate
4. C=C(C)C    high
5. C[N+](=O)[O-]    high
6. CCCCCC    moderate
7. C=CC    high

###

Listed here are compounds together with their documented solvation free energy, 298 K.
# measurement-notes: solvent given as SMILES
# condition-set: in CCCCOC(C)=O
measure: solvation free energy, 298 K (kcal/mol)

1) O=C(O)c1cc([N+](=O)[O-])ccc1Cl    -12.4
2) CCCCCCCCCCCCCCCCCCCCCCC    -14.9
3) CCCCCCCCCCCCCCCCCCC    -12.7
4) O=S(=O)(c1ccccc1)c1ccccc1    -14.2
5) CC(C)C(C)C(C)C    -4.56
6) CCCCCCCC    -4.85
7) COc1ccc(C(=O)O)cc1    -11.5
8) c1ccc2cc3ccccc3cc2c1    -11.1

###

Listed here are compounds together with their documented solvation free energy, 298 K.
# measurement-notes: solvent given as SMILES
# condition-set: in O
measure: solvation free energy, 298 K

1) CBr    -0.82 kcal/mol
2) CN1CCCC1=O    -7.83 kcal/mol
3) Cc1cccc2c(C)cccc12    -2.78 kcal/mol
4) C=C1CC2CCC1C2(C)C (stereo unspecified)    0.52 kcal/mol
5) CC(=O)OCC=C(C)CCC=C(C)CCC=C(C)C    -3.96 kcal/mol
6) CC(=O)CC(C)C    -3.06 kcal/mol
7) CC1(C)C2CC3C(C2)C31C    0.87 kcal/mol
8) CCC=CCCC=O    -3.19 kcal/mol
9) ClC(Cl)=C(Cl)C(Cl)=C(Cl)Cl    -0.46 kcal/mol
10) CN(C)C1CCCCC1    -4.12 kcal/mol
11) CN(C)C(=O)c1ccc([N+](=O)[O-])cc1    -11.9 kcal/mol
12) C=COC(C)=O    -2.67 kcal/mol
13) c1ccc2cc3c(ccc4ccccc43)cc2c1    -6.26 kcal/mol
14) CCc1ccc2c(c1)C(=O)c1ccccc1C2=O    -6.57 kcal/mol
15) CCOCCO    -6.7 kcal/mol
16) C1CCNC1    -5.48 kcal/mol
17) CCNc1nc(Cl)nc(NCC)n1    -10.1 kcal/mol
18) CCCCN(CC)C(=O)SCCC    -3.64 kcal/mol
19) C=C(C)c1ccccc1    -1.28 kcal/mol
20) CCC(C)CC    2.47 kcal/mol
21) Clc1c(Cl)c(Cl)c2c(c1Cl)Oc1c(Cl)c(Cl)c(Cl)c(Cl)c1O2    -4.53 kcal/mol
22) Clc1cccc(Cl)c1Cl    -1.24 kcal/mol
23) Oc1cccc(O)c1    -11.4 kcal/mol
24) CCCCCCCBr    0.34 kcal/mol
25) Cc1ccc(C)c2ccccc12    -2.82 kcal/mol
26) c1cc[nH]c1    -4.78 kcal/mol
27) C=CC=CCC    0.75 kcal/mol
28) Clc1cc2c(cc1Cl)Oc1ccccc1O2    -3.56 kcal/mol
29) C1COCCN1    -7.17 kcal/mol
30) O=C(O)c1ccc(Cl)c([N+](=O)[O-])c1    -9.84 kcal/mol
31) FC(Cl)C(F)(F)F (stereo unspecified)    0.79 kcal/mol
32) O=[N+]([O-])c1ccc(Cl)c(Cl)c1Cl    -4.07 kcal/mol
33) CCc1ccccc1C    -0.95 kcal/mol
34) Oc1ccccc1F    -5.29 kcal/mol
35) C=C(CCC=C(C)C)C1CC=C(C)CC1 (stereo unspecified)    -0.5 kcal/mol
36) NC(=O)c1ccccc1O    -10.4 kcal/mol
